READOUT_NAME: melting point (°C)
Give bare numbers, in °C.

[[record]]
molecule = "CC(C)(C)OC(=O)[C@@H](NC(=O)[C@@H](NC(=O)CC1CC1)c1ccccc1)c1ccccc1 [Example 264]"
endpoint_value = 187.5


Here is another molecule to look at.
Need melting point, item COC(=O)[C@@H](NC(=O)[C@H](CC(C)C)NC(=O)Cc1cc(F)cc(F)c1)c1ccccc1 [Example 196]
178.4

====

Provide the recorded melting point for the entries that follow.

Parameter requested: melting point. Apply to each item below.
1. CCC[C@H](NC(=O)Cc1cc(F)cc(F)c1)C(=O)N[C@H](C(=O)OC)c1ccccc1
2. COC(=O)[C@H](Cc1ccccc1)NC(=O)[C@H](C)NC(=O)CC1=CCCCC1
3. CCOC(=O)C(NC(=O)[C@H](C)NC(=O)Cc1cc(F)cc(F)c1)c1ccncc1 (stereo partly shown)
4. COC(=O)C1Cc2ccccc2CN1C(=O)[C@H](C)NC(=O)Cc1cc(F)cc(F)c1 (stereo partly shown)

["204 to 205 °C", "139 to 142 °C", "175 to 181 °C", "37 to 40 °C"]

====

Provide the recorded melting point for the entries that follow.

Below are worked cases with known answers.
[[record]]
compound = "COC(=O)[C@H](Cc1c[nH]cn1)NC(=O)[C@H](C)NC(=O)Cc1cc(F)cc(F)c1 [Example 2]"
endpoint_value = "195 to 197 °C"

[[record]]
compound = "CCOC(=O)[C@H](C)NC(=O)[C@H](C)NC(=O)Cc1cc(F)cc(F)c1 [Example 85]"
endpoint_value = "197 to 199 °C"

[[record]]
compound = "C=CCCC(=O)N[C@@H](C)C(=O)N[C@@H](Cc1ccccc1)C(=O)OC [Example 11]"
endpoint_value = "125.5 to 126.5 °C"


Here is another compound to look at.
Need melting point, item COC(=O)[C@H](Cc1ccccc1)NC(=O)[C@H](C)NC(=O)Cc1ccccc1 [Example 204]
148 to 149.5 °C

====

Provide the recorded melting point for the entries that follow.

Below are worked cases with known answers.
[[record]]
molecule = "CCOC(=O)[C@H](Cc1ccc(O)cc1)NC(=O)[C@H](C)NC(=O)Cc1cccc([N+](=O)[O-])c1 [Example 81]"
endpoint_value = "117 to 119 °C"

[[record]]
molecule = "CCOC(=O)C(NC(=O)[C@H](C)NC(=O)Cc1cc(F)cc(F)c1)C1CCCCC1 (stereo partly shown) [Example 126]"
endpoint_value = "146 to 150 °C"

[[record]]
molecule = "CCOC(=O)[C@H](C)NC(=O)[C@H](C)NC(=O)Cc1cccc([N+](=O)[O-])c1 [Example 76]"
endpoint_value = "193 to 195 °C"

[[record]]
molecule = "COC(=O)[C@@H](NC(=O)[C@@H](NC(=O)Cc1cc(F)cc(F)c1)c1ccccc1)c1ccccc1 [Example 199]"
endpoint_value = "222.8 °C"

[[record]]
molecule = "CC(C)(C)OC(=O)[C@@H](NC(=O)[C@@H](NC(=O)CC1CCCC1)c1ccccc1)c1ccccc1 [Example 265]"
endpoint_value = "190.8 °C"

[[record]]
molecule = "COC(=O)[C@H](Cc1ccc(OCC(=O)OC(C)(C)C)cc1)NC(=O)[C@H](C)NC(=O)Cc1cc(F)cc(F)c1 [Example 14]"
endpoint_value = "116 to 119 °C"


Need melting point, item COC(=O)[C@H](Cc1ccccc1)NC(=O)[C@H](C)NC(=O)CC1CC1 [Example 72]
128 to 131 °C

====

Residues, ends and D or L forms follow the SMILES beside them.
Provide the recorded melting point for the entries that follow.

[[record]]
compound = "CCOC(=O)C(C)(NC(=O)[C@H](C)NC(=O)Cc1cc(F)cc(F)c1)c1ccccc1 (stereo partly shown)"
endpoint_value = "128 to 130 °C"


Parameter requested: melting point. Apply to each item below.
1. COC(=O)[C@H](Cc1ccc(O)cc1)NC(=O)[C@H](C)NC(=O)Cc1cc(F)cc(F)c1
2. COC(=O)[C@@H](NC(=O)[C@H](C)NC(=O)Cc1ccccc1)C(C)C [Example 207] (HELM PEPTIDE1{[O=C(Cc1ccccc1)[*:2]].A.V.[CO[*:1]]}$$$$V2.0)
3. COC(=O)[C@H](Cc1cccs1)NC(=O)[C@H](C)NC(=O)Cc1cc(F)cc(F)c1

85 to 88 °C
112 to 115 °C
145 to 147 °C

====

Non-standard residues stand in square brackets, D forms with d. Residues, ends and D or L forms follow the SMILES beside them. ξ: configuration not given here. *: point of attachment. Isovaleryl = CC(C)CC(=O)*; ξChg = NC(C(=O)O)C1CCCCC1
READOUT_NAME: melting point

[[record]]
compound = "CCOC(=O)[C@H](C)NC(=O)[C@@H](NC(=O)CC1CCCCC1)c1ccccc1"
readout_name = "melting point"
endpoint_value = "196 to 198 °C"


Parameter requested: melting point. Apply to each item below.
1. COC(=O)[C@H](CC(C)C)NC(=O)[C@H](C)NC(=O)Cc1ccccc1 [Example 201] (HELM PEPTIDE1{[O=C(Cc1ccccc1)[*:2]].A.L.[CO[*:1]]}$$$$V2.0)
2. COC(=O)[C@H](Cc1ccccc1)NC(=O)[C@H](C)NC(=O)Cc1ccncc1
3. COC(=O)[C@H](Cc1cccnc1)NC(=O)[C@H](C)NC(=O)Cc1cc(F)cc(F)c1
4. COC(=O)[C@H](Cc1ccccc1)NC(=O)[C@H](C)NC(=O)CC1CCCC1
5. C[C@H](NC(=O)Cc1cc(F)cc(F)c1)C(=O)N[C@@H](C(=O)OC(C)(C)C)c1cccs1
6. COC(=O)[C@H](C)NC(=O)[C@H](C)NC(=O)Cc1ccccc1 [Example 200] (HELM PEPTIDE1{[O=C(Cc1ccccc1)[*:2]].A.A.[CO[*:1]]}$$$$V2.0)
7. CCC[C@H](NC(=O)[C@H](C)NC(=O)Cc1ccccc1)C(=O)OC [Example 209] (HELM PEPTIDE1{[O=C(Cc1ccccc1)[*:2]].A.[Nva].[CO[*:1]]}$$$$V2.0)
8. C[C@H](NC(=O)Cc1cc(F)cc(F)c1)C(=O)N[C@@H](Cc1ccccc1)C(=O)OCCCBr

1: 102.5 to 105 °C; 2: 152 to 154 °C; 3: 101 to 103 °C; 4: 137 to 139 °C; 5: 117 to 118 °C; 6: 140.5 to 142 °C; 7: 135 to 137 °C; 8: 138 to 142 °C

Parameter requested: melting point. Apply to each item below.
1. CC[C@H](NC(=O)[C@H](C)NC(=O)Cc1cc(F)cc(F)c1)C(=O)OC
2. COC(=O)[C@@H](NC(=O)[C@@H](NC(=O)Cc1cc(F)cc(F)c1)C(C)(C)C)c1ccccc1
3. COC(=O)[C@@H](NC(=O)CC1CCCC[C@@H]1NC(=O)Cc1cc(F)cc(F)c1)c1ccccc1 (stereo partly drawn)
4. CC(C)[C@H](NC(=O)Cc1cc(F)cc(F)c1)C(=O)N[C@H](C(=O)OC(C)(C)C)c1ccccc1
5. COC(=O)[C@H](Cc1ccccc1)NC(=O)[C@H](C)NC(=O)CC1CCCCC1
6. CC(C)COC(=O)[C@H](C)NC(=O)[C@@H](NC(=O)[C@@H](NC(=O)CC(C)C)C(C)C)c1ccccc1

1: 103 to 106 °C; 2: 176.4 °C; 3: 234.4 °C; 4: 170.5 to 171.8 °C; 5: 156 to 158 °C; 6: 217 to 221 °C

Parameter requested: melting point. Apply to each item below.
1. CC(C)COC(=O)[C@H](C)NC(=O)[C@@H](NC(=O)CC(C)C)c1ccccc1
2. COC(=O)[C@@H](NC(=O)[C@H](Cc1ccccc1)NC(=O)[C@H](C)NC(=O)Cc1cc(F)cc(F)c1)c1ccccc1
3. CCOC(=O)C(NC(=O)[C@H](C)NC(=O)Cc1cc(F)cc(F)c1)c1ccc2sccc2c1 (stereo partly drawn)
4. O=C(CC1CCCC1)N[C@H](C(=O)N[C@H](CO)c1ccccc1)c1ccccc1
5. NC(C(=O)NC(=O)C(NC(=O)Cc1cc(F)cc(F)c1)c1ccccc1)c1ccccc1 (mixture of isomers)
6. CCOC(=O)[C@H](C)NC(=O)C(NC(=O)CC(C)C)C1CCCCC1 (stereo partly drawn) [Example 128] (Isovaleryl-[ξChg]-Ala-OEt)

181 to 186 °C
203 to 207 °C
126.5 to 127.5 °C
201.4 °C
285.5 to 288.5 °C
220 to 224 °C

Parameter requested: melting point. Apply to each item below.
1. CCCC[C@H](NC(=O)[C@H](C)NC(=O)Cc1cc(F)cc(F)c1)C(=O)O
2. C[C@H](NC(=O)Cc1cc(F)cc(F)c1)C(=O)NCC(=O)OCCc1ccccc1
3. COC(=O)[C@H](CCCCN(C)C)NC(=O)[C@H](C)NC(=O)Cc1cc(F)cc(F)c1
4. COC(=O)CNC(=O)[C@H](C)NC(=O)Cc1cc(F)cc(F)c1
5. CCCC[C@H](NC(=O)[C@H](C)NC(=O)Cc1cc(F)cc(F)c1)C(=O)OC
6. C[C@H](NC(=O)CC1CC1)C(=O)N[C@H](C(=O)OC(C)(C)C)c1ccccc1
7. CCOC(=O)C(NC(=O)[C@H](C)NC(=O)Cc1cc(F)cc(F)c1)c1ccccn1 (stereo partly drawn)
8. COC(=O)C(NC(=O)[C@H](C)NC(=O)Cc1cc(F)cc(F)c1)c1cccc(OC)c1 (stereo partly drawn)

1: 158.5 to 160.5 °C; 2: 154 to 155.2 °C; 3: 123 to 126 °C; 4: 158 to 160 °C; 5: 142 to 143 °C; 6: 105 to 107 °C; 7: 123 to 125 °C; 8: 163 to 170 °C

Need melting point, item "O=C(CC1CC1)N[C@H](C(=O)N[C@H](CO)c1ccccc1)c1ccccc1"
202.5 °C
